Let's go through some MIC measurements on Bacillus cereus 33018 together.
assay-endpoint: MIC (µg/mL)

* COc1ccc(-c2cc(-c3ccco3)nc3sc4c(N=Cc5cccs5)c5c(nc4c23)CCCC5)cc1 [Compound 12b] | 15.6
* O=C(CCl)Nc1c2c(nc3c1sc1nc(-c4ccco4)cc(-c4cccs4)c13)CCCC2 | 15.6
* COc1ccc(-c2cc(-c3ccco3)nc3sc4c(NC(=O)CNN=Cc5ccc(OC)c(OC)c5)c5c(nc4c23)CCCC5)cc1 | 31.2
* COc1ccc(-c2cc(-c3ccco3)nc3sc4c(N)c5c(nc4c23)CCCC5)cc1 | 31.2

* * *

- Test system: Escherichia coli 8739
- experiment-description: agar disc-diffusion antibacterial assay
- Type: cell-based
- cond: E. coli 8739, disc loaded with 100 μg, 37 °C, 24 h, read-out: diameter of inhibition zone
assay-endpoint: zone of inhibition at 100 µg/disc

- COc1ccc(-c2cc(-c3ccco3)nc3sc4c(N=Cc5ccc(N(C)C)cc5)c5c(nc4c23)CCCC5)cc1 [Compound 12a]: 11 mm
- COc1ccc(-c2cc(-c3ccco3)nc3sc4c(NC(=O)CNN)c5c(nc4c23)CCCC5)cc1: 16 mm
- COc1ccc(-c2cc(-c3ccco3)nc3sc(C(N)=O)c(N=C4CCCCC4)c23)cc1: 18 mm

* * *

- Tested on: Bacillus cereus 33018
Measured MIC, listed per entry.
assay-endpoint: MIC (µg/mL)

• NNCC(=O)Nc1c2c(nc3c1sc1nc(-c4ccco4)cc(-c4cccs4)c13)CCCC2 = 31.2
• COc1ccc(-c2cc(-c3ccco3)nc3sc4c(NC(=O)CN5CCN(C)CC5)c5c(nc4c23)CCCC5)cc1 = 15.6
• COc1ccc(-c2cc(-c3ccco3)nc3sc4c(NC(=O)CN5CCOCC5)c5c(nc4c23)CCCC5)cc1 = 15.6
• NC(=O)c1sc2nc(-c3ccco3)cc(-c3cccs3)c2c1N = 15.6
• COc1ccc(-c2cc(-c3ccco3)nc3sc4c(NC(=O)CCl)c5c(nc4c23)CCCC5)cc1 = 31.2
• COc1ccc(-c2cc(-c3ccco3)nc3sc4c(NS(=O)(=O)c5ccccc5)c5c(nc4c23)CCCC5)cc1 = 62.5
• COc1ccc(-c2cc(-c3ccco3)nc3sc4c(NC(=O)Nc5ccccc5)c5c(nc4c23)CCCC5)cc1 = 62.5

* * *

Let's go through some MIC measurements on Bacillus subtilis 6633 together.
assay-endpoint: MIC (µg/mL)

- O=C(CCl)Nc1c2c(nc3c1sc1nc(-c4ccco4)cc(-c4cccs4)c13)CCCC2: 15.6
- NC(=O)c1sc2nc(-c3ccco3)cc(-c3cccs3)c2c1N: 31.2
- CC(=O)CC(=O)Nc1c2c(nc3c1sc1nc(-c4ccco4)cc(-c4cccs4)c13)CCCC2: 15.6
- NC(=O)c1sc2nc(-c3ccco3)cc(-c3cccs3)c2c1N=C1CCCCC1: 31.2
- COc1ccc(-c2cc(-c3ccco3)nc3sc4c(NC(=O)CCl)c5c(nc4c23)CCCC5)cc1: 31.2
- COc1ccc(-c2cc(-c3ccco3)nc3sc4c(NC(=O)Nc5ccccc5)c5c(nc4c23)CCCC5)cc1: 31.2
- COc1ccc(-c2cc(-c3ccco3)nc3sc4c(N)c5c(nc4c23)CCCC5)cc1: 31.2
- COc1ccc(-c2cc(-c3ccco3)nc3sc(C(N)=O)c(N=C4CCCCC4)c23)cc1: 15.6
- COc1ccc(-c2cc(-c3ccco3)nc3sc4c(NC(=O)CN5CCN(C)CC5)c5c(nc4c23)CCCC5)cc1: 15.6
- COc1ccc(-c2cc(-c3ccco3)nc3sc4c(N=Cc5cccs5)c5c(nc4c23)CCCC5)cc1 [Compound 12b]: 15.6
- COc1ccc(-c2cc(-c3ccco3)nc3sc4c(NC(=O)CNN=Cc5ccc(C)cc5)c5c(nc4c23)CCCC5)cc1: 31.2
- CC1(C)S[C@@H]2[C@H](NC(=O)[C@H](N)c3ccc(O)cc3)C(=O)N2[C@H]1C(=O)O [Amoxicillin, amoxicillin trihydrate, reference compound]: 15.6
- COc1ccc(-c2cc(-c3ccco3)nc3sc4c(N=Cc5ccc(N(C)C)cc5)c5c(nc4c23)CCCC5)cc1 [Compound 12a]: 31.2
- Nc1c2c(nc3c1sc1nc(-c4ccco4)cc(-c4cccs4)c13)CCCC2: 31.2
- COc1ccc(-c2cc(-c3ccco3)nc3sc4c(NC(=O)CN5CCOCC5)c5c(nc4c23)CCCC5)cc1: 15.6
- COc1ccc(-c2cc(-c3ccco3)nc3sc4c(NS(=O)(=O)c5ccccc5)c5c(nc4c23)CCCC5)cc1: 62.5
- COc1ccc(-c2cc(-c3ccco3)nc3sc(C(N)=O)c(N)c23)cc1: 31.2
- COc1ccc(-c2cc(-c3ccco3)nc3sc4c(NC(=O)CNN=Cc5ccc(OC)c(OC)c5)c5c(nc4c23)CCCC5)cc1: 31.2
- COc1ccc(-c2cc(-c3ccco3)nc3sc4c(NC(=O)CNN)c5c(nc4c23)CCCC5)cc1: 15.6
- NNCC(=O)Nc1c2c(nc3c1sc1nc(-c4ccco4)cc(-c4cccs4)c13)CCCC2: 62.5
- CC1=NN=C(Nc2c3c(nc4c2sc2nc(-c5ccco5)cc(-c5cccs5)c24)CCCC3)C1: 15.6
